Numbers sourced from patent US20250215104A1.

target: T1, human soluble urokinase plasminogen activator receptor (suPAR) (human, UniProt Q03405 23-303, limits assumed); experiment: BLI (Octet) off-rate screen of scFv clones
T1 construct: Column head says only 'human'; also called hsuPAR; human suPAR
T1 sequence (Q03405 23-303 limits assumed): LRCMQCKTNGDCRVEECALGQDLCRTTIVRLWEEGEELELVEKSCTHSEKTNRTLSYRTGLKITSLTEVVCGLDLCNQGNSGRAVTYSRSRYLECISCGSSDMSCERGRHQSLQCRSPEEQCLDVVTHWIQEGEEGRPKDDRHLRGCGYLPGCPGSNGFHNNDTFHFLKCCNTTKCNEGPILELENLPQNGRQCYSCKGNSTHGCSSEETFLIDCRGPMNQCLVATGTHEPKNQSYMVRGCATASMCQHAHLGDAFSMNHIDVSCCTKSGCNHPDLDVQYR
Would you kindly list koff for each of these binders?

Inquiry: Input suPAR_DB05_D06 (scFv, V domains shown, Screened as scFv) VH: QVQLVQSGAEVKKPGASVKVSCKASGYTFSSYYMHWVRQAPGQGLEWMGWIDHENGNTIYDQKFQGRVTMTRDTSTSTVYMELSSLRSEDTAVYYCARGDDVDWFVYWGQGTLVTVSS VL: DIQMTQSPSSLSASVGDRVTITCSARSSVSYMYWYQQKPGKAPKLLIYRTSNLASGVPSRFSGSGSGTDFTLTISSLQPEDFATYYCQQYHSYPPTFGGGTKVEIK , output reported koff.
Reply text: 0.00345 s⁻¹

Inquiry: Input suPAR_DB05_D01 (scFv, V domains shown, Screened as scFv) VH: QVQLVQSGAEVKKPGASVKVSCKASGHTSTNYYMHWVRQAPGQGLEWMGWIDHEGGNTSYDQKFQGRVTMTRDTSTSTVYMELSSLRSEDTAVYYCARGYDVDWFVYWGQGTLVTVSS VL: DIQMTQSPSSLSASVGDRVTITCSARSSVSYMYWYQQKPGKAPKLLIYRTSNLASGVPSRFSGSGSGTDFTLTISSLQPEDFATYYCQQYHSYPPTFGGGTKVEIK , output reported koff.
Reply text: 0.00533 s⁻¹

Inquiry: Input suPAR_DB05_D08 (scFv, V domains shown, Screened as scFv) VH: QVQLVQSGAEVKKPGASVKVSCKASGYTFTRYYMHWVRQAPGQGLEWVGWIDPHSGGTNYAQKFQGRVTMTRDTSTSTVYMELSSLRSEDTAVYYCARGYDIDWFVYWGQGTLVTVSS VL: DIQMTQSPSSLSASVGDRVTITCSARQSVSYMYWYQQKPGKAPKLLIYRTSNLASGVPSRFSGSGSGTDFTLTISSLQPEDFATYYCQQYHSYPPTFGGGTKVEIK , output reported koff.
Reply text: 0.00471 s⁻¹
